- System: ICS
- TEST DESCRIPTION: qHTS profiling for inhibitors of Plasmodium falciparum proliferation (AID 504749); also: nearly all actives have a fitted effect of over 60% in size
- MEASUREMENT CONTEXT: P. falciparum in erythrocytes, SYBR Green DNA, 72 h; series mostly up to 28.7 µM
Records with an inconclusive call do not appear. The source made the active and inactive calls. Calls follow the shape of the dose curve; as a rule, active = well fitted inhibition curve with a large enough effect; inconclusive = small, poorly fitted or top-dose-only effect; inactive = flat fitted curve, though single readings scatter.
Respond only with the outcome that fits, drawn from active, inactive

Sample answers from the record:
{"COMPOUND": "CCC(C)n1ncn(-c2ccc(N3CCN(c4ccc(OCC5COC(Cn6cncn6)(c6ccc(Cl)cc6Cl)O5)cc4)CC3)cc2)c1=O (stereo not given)", "CLASSIFICATION": "active"}
{"COMPOUND": "CO/N=C(/C(=O)N[C@@H]1C(=O)N2C(C(=O)O)=CCS[C@H]12)c1csc(N)n1", "CLASSIFICATION": "inactive"}
{"COMPOUND": "Cc1cc(CC(C)CC(C)(C)C)n(O)c(=O)c1 (stereo not given)", "CLASSIFICATION": "active"}
{"COMPOUND": "CN1CC[C@H](CN2c3ccccc3Sc3ccccc32)C1", "CLASSIFICATION": "active"}

Now for another entry.
q: Just curious, what result did CCN1/C(=C/C=C/C=C/c2sc3ccccc3[n+]2CC)Sc2ccccc21 get here?
a: active

====

- TEST DESCRIPTION: Cell Viability - BJ (AID 421);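 also: potency is read from the fitted curve at half-maximal effect; cells exposed to compound for 40 hours at 37 °C before readout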
- MEASUREMENT CONTEXT: BJ fibroblast viability, qHTS
Inconclusive results are not listed. Activity calls are given as the source filed them. The call rests on the fitted dose curve.
Respond only with the outcome that fits, drawn from active, inactive

Sample answers from the record:
{"COMPOUND": "CCCCOCCO", "CLASSIFICATION": "inactive"}
{"COMPOUND": "O=C(O)CC(C(=O)O)C(CC(=O)O)C(=O)O (stereo not drawn)", "CLASSIFICATION": "inactive"}
{"COMPOUND": "CCCCC(CC)CN (stereo not drawn)", "CLASSIFICATION": "inactive"}
{"COMPOUND": "COc1ccc2nc(N)sc2c1", "CLASSIFICATION": "inactive"}
{"COMPOUND": "CCC(C)c1ccccc1O (stereo not drawn)", "CLASSIFICATION": "inactive"}
{"COMPOUND": "c1ccc2scnc2c1", "CLASSIFICATION": "inactive"}
{"COMPOUND": "O=C(/C=C/c1ccc(O)c(O)c1)O[C@@H](C(=O)O)[C@@H](OC(=O)/C=C/c1ccc(O)c(O)c1)C(=O)O", "CLASSIFICATION": "inactive"}
{"COMPOUND": "CC(=O)OC/C=C(\\C)CCC=C(C)C", "CLASSIFICATION": "inactive"}

q: Just curious, what result did C/C=C\c1ccc(OC)cc1 get here?
a: inactive

q: Also O[C@@H]([C@H](O)[C@@H](O)CBr)[C@@H](O)CBr , if possible.
a: inactive

q: Also CC12CCC(CC1=O)C2(C)C (stereo not drawn) , if possible.
a: inactive

q: Also C=Cc1ccccc1Cl , if possible.
a: inactive

q: Also OCCNCCO , if possible.
a: inactive

q: Also CCCCCCCCO , if possible.
a: inactive

q: Also C=CCc1ccc(OC)c(OC)c1 , if possible.
a: inactive

====

- TEST DESCRIPTION: qHTS assay for small molecule agonists of the antioxidant response element (ARE) signaling pathway measured by Nrf2-dependant transcriptional activity (AID 720636);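 also: HepG2 cells with an ARE-driven luciferase reporter; % of control where 0% means no effect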
- MEASUREMENT CONTEXT: ARE-luc HepG2, Nrf2 luciferase reporter, 16 h; series mostly up to 92.4 µM
- Excerpt: National Center for Advancing Translational Sciences [NCATS] NIH Chemical Genomics Center [NCGC] U.S. Environmental Protection Agency [EPA] National Institutes of Environmental Health Sciences [NIEHS] National Toxicology Program [NTP] Assay Overview: The antioxidant response element (ARE) signaling pathway plays an important role in the cellular anti-oxidant defense. […]
Inconclusive results are not listed. Active and inactive are the calls of the source. The call rests on the fitted dose curve; in most records, active means well fitted activation curve with a large enough effect in the repeat runs; inconclusive means weak or mixed curves; inactive means flat fitted curve, though single readings scatter.
Respond only with the outcome that fits, drawn from active, inactive

q: Just curious, what result did Cc1ccc([N+](=O)[O-])cc1N get here?
a: inactive

====

- TARGET OR TEST SYSTEM: Cytochrome P450 2C19 (Homo sapiens)
- TEST DESCRIPTION: qHTS Assay for Inhibitors and Substrates of Cytochrome P450 2C19 (AID 899); also: nearly all actives have a fitted effect of over 60% in size
- MEASUREMENT CONTEXT: recombinant CYP2C19, luciferin-H EGE luminescence; series mostly up to 57.1 µM
Inconclusive results are not listed. Activity calls are given as the source filed them. Calls follow the shape of the dose curve; as a rule, active = well fitted inhibition curve with a large enough effect; inconclusive = small, poorly fitted or top-dose-only effect; inactive = no such curve, though single readings can be large or run the other way.
Respond only with the outcome that fits, drawn from active, inactive

{"ITEM SMILES": "CNc1ncncc1-c1ccccc1CN(C)C", "CLASSIFICATION": "inactive"}
{"ITEM SMILES": "CS(=O)(=O)Nc1cccc(-c2nc(Nc3ccncc3)c3ccccc3n2)c1", "CLASSIFICATION": "active"}
{"ITEM SMILES": "CN(C)c1ccc(-c2cncnc2NCCc2cnc[nH]2)cc1", "CLASSIFICATION": "active"}
{"ITEM SMILES": "COc1ccc2[nH]cc(CCNc3ncnc4ccc(-c5ccoc5)cc34)c2c1", "CLASSIFICATION": "active"}

q: Just curious, what result did CN(C)c1ncc2nc(CCc3ccccc3)c(=O)n(Cc3cccs3)c2n1 get here?
a: active

====

- TEST DESCRIPTION: Cell Viability - LYMP1-002 - Assay at 40 hr (AID 994); also: nearly all actives have a fitted effect of over 60% in size
- MEASUREMENT CONTEXT: LYMP1-002 lymphoblastoid cell viability; series mostly up to 92.2 µM
Records with an inconclusive call do not appear. Active and inactive are the calls of the source. The call rests on the fitted dose curve; in most records, active means well fitted cell-killing curve with a large enough effect; inconclusive means small, poorly fitted or top-dose-only effect; inactive means flat fitted curve, though single readings scatter.
Respond only with the outcome that fits, drawn from Y (active), N (inactive)

Sample answers from the record:
{"MOLECULE": "c1ccc2c(c1)[nH]c1ccccc12", "CLASSIFICATION": "N"}
{"MOLECULE": "C=C(C)C1CC=C(C)C(O)C1 (centres undefined)", "CLASSIFICATION": "N"}
{"MOLECULE": "CCCCCCCCCCCCCCC1CO1 (centres undefined)", "CLASSIFICATION": "N"}

Now for another entry.
q: Just curious, what result did NC1=NC(S)C2N=CN=C2N1 (centres undefined) get here?
a: Y

====

- TARGET OR TEST SYSTEM: Rap guanine nucleotide exchange factor 3 (Homo sapiens) (UniProt O95398)
- Sequence (O95398 whole entry, looked up): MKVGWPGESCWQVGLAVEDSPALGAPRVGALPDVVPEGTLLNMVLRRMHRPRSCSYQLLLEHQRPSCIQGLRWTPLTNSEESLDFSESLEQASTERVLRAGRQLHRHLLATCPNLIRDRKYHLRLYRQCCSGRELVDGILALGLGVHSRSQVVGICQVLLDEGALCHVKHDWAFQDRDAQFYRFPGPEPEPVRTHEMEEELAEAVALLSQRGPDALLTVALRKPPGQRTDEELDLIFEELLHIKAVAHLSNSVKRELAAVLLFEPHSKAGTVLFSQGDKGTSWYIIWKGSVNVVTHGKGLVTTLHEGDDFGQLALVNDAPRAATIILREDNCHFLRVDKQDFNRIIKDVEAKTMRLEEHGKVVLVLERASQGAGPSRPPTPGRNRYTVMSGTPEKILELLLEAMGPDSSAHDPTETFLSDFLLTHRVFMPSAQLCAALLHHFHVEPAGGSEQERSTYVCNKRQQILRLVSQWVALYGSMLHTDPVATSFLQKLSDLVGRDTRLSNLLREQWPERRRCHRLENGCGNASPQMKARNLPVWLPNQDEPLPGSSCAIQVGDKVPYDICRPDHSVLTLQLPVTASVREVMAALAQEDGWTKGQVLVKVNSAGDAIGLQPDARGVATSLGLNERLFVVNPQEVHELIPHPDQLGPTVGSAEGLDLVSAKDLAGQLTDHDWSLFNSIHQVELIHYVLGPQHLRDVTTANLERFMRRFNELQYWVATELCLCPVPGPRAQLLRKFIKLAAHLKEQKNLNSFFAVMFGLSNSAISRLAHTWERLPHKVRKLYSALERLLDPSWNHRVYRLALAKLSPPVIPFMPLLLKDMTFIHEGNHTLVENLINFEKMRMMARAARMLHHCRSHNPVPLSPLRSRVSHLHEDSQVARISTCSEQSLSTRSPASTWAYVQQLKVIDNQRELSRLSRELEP
- TEST DESCRIPTION: Counterscreen qHTS for antagonist of cAMP-regulated guanine nucleotide exchange factor 3 (EPAC1) (AID 1645888);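 also: fluorescence loss as bound BODIPY-GDP is released from Rap1B; % of control where 0% means no effect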
- MEASUREMENT CONTEXT: Rap1B-BODIPY-GDP nucleotide exchange, fluorescence; series mostly up to 154 µM
Inconclusive results are not listed. Calls of active or inactive are those of the source. Calls follow the shape of the dose curve; as a rule, active = well fitted inhibition curve with a large enough effect; inconclusive = small, poorly fitted or top-dose-only effect; inactive = no such curve, though single readings can be large or run the other way.
QUANTITY KIND: activity change, negative = inhibition

Before answering, review these 4 worked examples.
{"COMPOUND": "CCCCNC(=O)CN1CCN(c2ncc(NC(=O)c3ccc(Cl)cc3)cc2C(=O)O)CC1", "activity change, negative = inhibition": "inactive"}
{"COMPOUND": "CNc1ccc(/C=C(\\CCC(=O)O)c2nc3ccccc3s2)cc1[N+](=O)[O-]", "activity change, negative = inhibition": "-16.8% [at 30.8 µM] (inactive)"}
{"COMPOUND": "CN(C)c1ccc(/C=C/C(=O)c2cccc(Br)c2)cc1", "activity change, negative = inhibition": "21.2% [at 30.8 µM] (inactive)"}
{"COMPOUND": "COc1cc(NC(=O)c2cc3nc(-c4ccccc4)cc(-c4ccccc4)n3n2)cc(OC)c1OC", "activity change, negative = inhibition": "inactive"}

q: Please report the recorded activity change, negative = inhibition for Nc1nc2ccccc2n1S(=O)(=O)c1ccc([N+](=O)[O-])cc1 .
a: inactive

q: Also O=C(O)c1ccccc1N=N/C(=N/Nc1cc(S(=O)(=O)O)ccc1O)c1ccccc1 , if possible.
a: -3.19% [at 30.8 µM] (inactive)

q: Also O=C(O)c1ccc(N/N=C/c2ccc(-c3ccc(Cl)cc3Cl)o2)cc1 , if possible.
a: inactive

====

- TARGET OR TEST SYSTEM: Rap guanine nucleotide exchange factor 3 (Homo sapiens)
- TEST DESCRIPTION: Counterscreen qHTS for agonist of cAMP-regulated guanine nucleotide exchange factor 3 (EPAC1) (AID 1645889); also: potency is read from the fitted curve at half-maximal effect; nearly all actives have a fitted effect of over 40% in size
- MEASUREMENT CONTEXT: EPAC1 Rap1B-BODIPY-GDP exchange, fluorescence; series mostly up to 154 µM
Inconclusive results are not listed. The source made the active and inactive calls. Calls come from the whole dose curve; as a rule, active = well fitted activation curve with a large enough effect; inconclusive = small, poorly fitted or top-dose-only effect, or another doubt; inactive = no such curve, though single readings can be large or run the other way.
QUANTITY KIND: Potency

{"COMPOUND": "CC(C)CC1=NN2C(=N)/C(=C\\c3coc4ccccc4c3=O)C(=O)N=C2S1", "Potency": "12.6 µM (active)"}
{"COMPOUND": "CCCCN(C)C1=CC2=CC(=C(C#N)C#N)CCC2CC1 (stereo unspecified)", "Potency": "39.8 µM (active)"}
{"COMPOUND": "Cc1cc2nc3c(=O)n(C)c(=O)n(C)c3nc2cc1N=CN(C)C", "Potency": "44.7 µM (active)"}
{"COMPOUND": "Cc1ccc[n+](-c2nc([O-])sc2C=O)c1", "Potency": "39.8 µM (active)"}

q: Please report the recorded Potency for COc1cc2c(cc1OC)C1(C)N(CC2)C(C(C)=O)=NN1c1ccc(Cl)cc1 (stereo unspecified) .
a: 3.55 µM (active)

q: Also COc1ccccc1CCC(=O)Nc1cc(S(=O)(=O)N2CCCCC2)ccc1N1CCN(C)CC1 , if possible.
a: 63.1 µM (active)

q: Also COc1ccc(S(=O)(=O)Nc2cc(SCC(=O)O)c(O)c3ccccc23)cc1 , if possible.
a: 56.2 µM (active)

q: Also COc1ccc(C2CC(c3cccs3)=NN2c2ccc(C=O)cc2)cc1 (stereo unspecified) , if possible.
a: 44.7 µM (active)

q: Also COc1ccc(NC(=O)NS(=O)(=O)c2ccc(C)cc2)cn1 , if possible.
a: 63.1 µM (active)

q: Also COc1ccc(N=Nc2nc3cc(Br)c(Br)cc3n2C)c(OC)c1 , if possible.
a: 12.6 µM (active)

q: Also Cc1cc2nc3c(=O)n(C4CCCCC4)c(=O)[nH]c3nc2cc1N , if possible.
a: 25.1 µM (active)

q: Also CN1CCN(C2=CC3=CC(=C(C#N)C#N)CCC3CC2)CC1 (stereo unspecified) , if possible.
a: 14.1 µM (active)
